target: Human lysosome α-glucosidase (Homo sapiens, UniProt P10253); assay: In vitro enzyme inhibition; type: biochemical; conditions: concentration required to inhibit the enzyme to 50% activity; read-out: IC50
Measured IC50, listed per entry for reference.

Consider the following illustrative entries.
chemical_string: CCCCCCCCCN1C[C@H](O)[C@@H](O)[C@H](O)[C@H]1CO
reported_result: 0.14 µM
--
chemical_string: CCCCCCCCCN1C[C@H](O)[C@@H](O)[C@@H](O)[C@H]1CO
reported_result: > 1000 µM
--
chemical_string: CCCCN1C[C@H](O)[C@@H](O)[C@H](O)[C@H]1CO
reported_result: 0.27 µM

IN: Record request: IC50 value, item CCCC(=O)O[C@H]1CN2CC[C@H](O)[C@@H]2[C@@H](O)[C@@H]1O
OUT: 93.2 µM

IN: Continue with CCCCN1C[C@H](O)[C@@H](O)[C@@H](O)[C@H]1CO
OUT: > 1000 µM

###

Test system: MDMΦs
Test: Cytotoxicity, MTS cell proliferation assay
Assay type: cell-based, human
Experimental: Cytotoxicity of compounds was assessed by a cell proliferation assay for metabolic activity using a CellTiter 96 AQueous One Solution Cell Proliferation Assay (Promega) as per the manufacturer’s instructions. […] Samples were incubated for approximately 4 hours (37°C, 5% CO2), and the absorbance at 490 nm (A490) was measured on a SpectraMax M5 microplate reader (Molecular Devices).
Measured MNTD (maximum non-toxic dose tested), listed per entry for reference.
# value in µM; strip the unit string

Consider the following illustrative entries.
chemical_string: CCCCCCCCCN1C[C@H](O)[C@@H](O)[C@@H](O)[C@H]1CO
MNTD (maximum non-toxic dose tested), µM: 31.6
--
chemical_string: CCCC(=O)O[C@H]1CN2CC[C@H](O)[C@@H]2[C@@H](O)[C@@H]1O
MNTD (maximum non-toxic dose tested), µM: 100
--
chemical_string: CCCCN1C[C@H](O)[C@@H](O)[C@@H](O)[C@H]1CO
MNTD (maximum non-toxic dose tested), µM: 100
--
chemical_string: CCCCCCCCCN1C[C@H](O)[C@@H](O)[C@H](O)[C@H]1CO
MNTD (maximum non-toxic dose tested), µM: 31.6
--
chemical_string: CCCCN1C[C@H](O)[C@@H](O)[C@H](O)[C@H]1CO
MNTD (maximum non-toxic dose tested), µM: 100
--
chemical_string: O[C@H]1[C@H](O)[C@@H](O)CN2CC[C@H](O)[C@H]12
MNTD (maximum non-toxic dose tested), µM: 100

Alright, here's another molecule for you.
IN: MNTD (maximum non-toxic dose tested) of OC[C@H]1NC[C@H](O)[C@@H](O)[C@@H]1O on MDMΦs?
OUT: 10000

###

Measured IC50, listed per entry for reference.
Molecular target: Mouse ER α-glucosidase II (Mus musculus)
Sequence (Q8BHN3 33-944): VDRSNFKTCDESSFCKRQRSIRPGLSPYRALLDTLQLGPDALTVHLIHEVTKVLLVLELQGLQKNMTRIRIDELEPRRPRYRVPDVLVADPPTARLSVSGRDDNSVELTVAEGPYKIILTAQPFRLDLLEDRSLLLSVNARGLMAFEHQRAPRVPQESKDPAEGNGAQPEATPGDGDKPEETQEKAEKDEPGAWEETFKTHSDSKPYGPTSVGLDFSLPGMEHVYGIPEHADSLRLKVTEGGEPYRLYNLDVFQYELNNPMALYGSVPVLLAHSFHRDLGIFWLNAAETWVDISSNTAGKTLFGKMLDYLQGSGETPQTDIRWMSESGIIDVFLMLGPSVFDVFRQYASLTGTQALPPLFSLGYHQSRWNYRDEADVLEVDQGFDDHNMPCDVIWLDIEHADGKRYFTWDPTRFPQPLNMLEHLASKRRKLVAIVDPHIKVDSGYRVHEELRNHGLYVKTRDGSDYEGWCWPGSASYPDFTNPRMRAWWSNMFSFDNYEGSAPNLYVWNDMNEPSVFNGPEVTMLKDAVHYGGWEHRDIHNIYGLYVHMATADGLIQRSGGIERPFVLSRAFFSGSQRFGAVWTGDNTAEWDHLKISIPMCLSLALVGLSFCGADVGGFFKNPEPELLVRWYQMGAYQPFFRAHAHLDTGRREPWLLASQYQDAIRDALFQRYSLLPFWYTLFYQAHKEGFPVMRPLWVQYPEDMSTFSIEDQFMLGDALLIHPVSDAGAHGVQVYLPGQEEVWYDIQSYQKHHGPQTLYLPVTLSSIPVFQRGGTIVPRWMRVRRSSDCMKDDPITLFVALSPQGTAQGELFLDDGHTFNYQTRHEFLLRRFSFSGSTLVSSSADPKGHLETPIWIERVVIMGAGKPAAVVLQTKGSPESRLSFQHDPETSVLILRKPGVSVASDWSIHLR
Sequence (O08795 15-521 partner): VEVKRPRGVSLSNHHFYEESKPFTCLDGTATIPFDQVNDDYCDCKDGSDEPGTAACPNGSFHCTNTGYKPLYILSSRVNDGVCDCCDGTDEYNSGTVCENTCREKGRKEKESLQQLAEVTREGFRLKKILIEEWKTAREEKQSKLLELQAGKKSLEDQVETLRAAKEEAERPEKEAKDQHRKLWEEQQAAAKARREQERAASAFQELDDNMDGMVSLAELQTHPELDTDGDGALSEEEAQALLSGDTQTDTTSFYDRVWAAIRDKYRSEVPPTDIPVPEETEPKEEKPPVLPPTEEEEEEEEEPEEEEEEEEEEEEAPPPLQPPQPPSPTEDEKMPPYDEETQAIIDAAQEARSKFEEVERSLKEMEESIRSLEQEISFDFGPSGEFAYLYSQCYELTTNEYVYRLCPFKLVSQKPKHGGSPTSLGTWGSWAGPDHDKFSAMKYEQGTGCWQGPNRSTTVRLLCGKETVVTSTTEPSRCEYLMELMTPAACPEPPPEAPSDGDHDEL
Assay: In vitro enzyme inhibition, 4MUG hydrolysis
Assay type: biochemical
Conditions: concentration required to inhibit the enzyme to 50% activity
Description: Recombinant Mus musculus ER alpha-glucosidase II inhibition was measured by incubating 20 nM enzyme with various concentrations of inhibitors in 100 mM potassium phosphate pH 7.2 at 37 °C for 5 minutes. Activity was measured by addition of 0.25 mM 4-methylumbelliferyl α-D-glucopyranoside (4MUG) (Sigma Aldrich) in black, non-binding surface-treated microplates (Corning). […]
# value in µM; strip the unit string

Consider the following illustrative entries.
chemical_string: CCCCCCCCCN1C[C@H](O)[C@@H](O)[C@H](O)[C@H]1CO
target_entity: Mouse ER α-glucosidase II (Mus musculus)
units_of_measure: µM
reported_result: 3.1
//
chemical_string: CCCC(=O)O[C@H]1CN2CC[C@H](O)[C@@H]2[C@@H](O)[C@@H]1O
target_entity: Mouse ER α-glucosidase II (Mus musculus)
units_of_measure: µM
reported_result: 158
//
chemical_string: O[C@H]1[C@H](O)[C@@H](O)CN2CC[C@H](O)[C@H]12
target_entity: Mouse ER α-glucosidase II (Mus musculus)
units_of_measure: µM
reported_result: 58.9

IN: Record request: IC50 value, item CCCCN1C[C@H](O)[C@@H](O)[C@H](O)[C@H]1CO
OUT: 5.2

IN: Continue with OC[C@H]1NC[C@H](O)[C@@H](O)[C@@H]1O
OUT: 11.4
